Molecular target: Hexose transporter 1 (Plasmodium falciparum) (UniProt O97467)
Assay: ST_JUDE_LEISH: Cytotoxicity at 2uM final concentration against transgenic Leishmania Mexicana promastigotes LmPfHT that are glucose transport deficient and complemented with the Plasmodium falciparum hexose transporter. Activity is measured by DNA content using SYBR green in vitro
Type: functional
Below: a set of entries, each annotated with reported inhibition.
Use % as the unit, but write only the number.

| Compound | inhibition / % |
| --- | --- |
| CCCCN(Cc1cc(Cl)c(OC)c(OC)c1)c1ccc(C(O)(C(F)(F)F)C(F)(F)F)cc1 | 4.14 |
| COc1cccc(C(=O)NC(c2ccccc2OC)c2cc(Cl)c3cccnc3c2O)c1 (stereo unspecified) | -2.45 |
| O=S(=O)(c1cc2ccccc2s1)N(CCC(O)(C(F)(F)F)C(F)(F)F)Cc1cccc(O)c1 | -1.09 |
| CCCc1cc(Cc2cnc(N)nc2N)c2cccnc2c1OC | 4.01 |
| COC(=O)C(Cc1ccccc1)NC(=O)NC1CCN(c2ccnc(Nc3ccc(F)cc3)n2)C1 (stereo unspecified) | 0.86 |

INPUT: Give the measured inhibition of `O=C(Cc1cn(-c2ccccc2)nc1-c1ccc(Cl)cc1)Nc1nccs1` .
OUTPUT: 8.35

INPUT: Quick one: inhibition of CCCC(C)NC(=O)[C@H]1CNCCN1C(=O)CCCc1ccccc1 (stereo partly specified) ?
OUTPUT: 7.9

INPUT: Please report the recorded inhibition for CN(C)CCC(O)C=C(c1ccc(Cl)cc1)c1ccc(Cl)cc1 (stereo unspecified) .
OUTPUT: 7.5

INPUT: Please give the measured inhibition for this compound: COc1ccc2ncc(F)c(CCN3CC(O)C(CNCc4ccc5c(c4)OCCO5)C3)c2n1 (stereo unspecified)
OUTPUT: 4.38

INPUT: Given `Cc1cccc(OCC2CCN(c3ncc(C(=O)NC4CC4)cc3Cl)CC2)c1` , state its recorded inhibition.
OUTPUT: 5.86

INPUT: # get_value(readout='inhibition', item= `O=C(NCCCN1CCC(Cc2ccccc2)CC1)c1cc2c(Cl)nc3ccccc3c2s1` )
OUTPUT: 1.9

INPUT: Could you share which inhibition value was measured for `CC(=O)NCCNCc1cccc(C(=O)NCc2cccc(C(F)(F)F)c2)c1` ?
OUTPUT: 5.92

###

Target: Hexose transporter 1 (Plasmodium falciparum)
Assay: ST_JUDE_LEISH: Cytotoxicity at 2uM final concentration against transgenic Leishmania Mexicana promastigotes LmPfHT that are glucose transport deficient and complemented with the Plasmodium falciparum hexose transporter. Activity is measured by DNA content using SYBR green in vitro
Type: functional
# Lookup of reported inhibition keyed by entry
Give your result in % as a bare value.

| Compound | inhibition [%] |
| --- | --- |
| Cc1cccc2nc(-c3ccc(-c4cccc(NC(=O)Nc5ccc6c(c5)OCO6)c4)cc3)[nH]c12 | 4.13 |
| Cc1cc(Nc2ccncc2)n2nc(C)c(-c3ccccc3Cl)c2n1 | 1.58 |
| CNCCCn1c(N(C)C)nc2cc(-n3cnc4cc(-c5ccc(Cl)cc5)sc4c3=O)ccc21 | 3.48 |

INPUT: What does the record list as inhibition for `Cc1cc(NC(=O)CCN2CCN(c3cccc(Cl)c3Cl)CC2)ccc1N1CCN(C(C)C)CC1` ?
OUTPUT: -0.39

INPUT: Query: inhibition; subject: `O=C(Nc1ccc(Cl)cc1)Nc1cccc(-c2cccc(-c3nc4ccccc4[nH]3)c2)c1`
OUTPUT: 0.33

INPUT: Fill in: inhibition of `FC(F)(F)c1ccc2[nH]ccc(=NN=Cc3cccnc3)c2c1` is ___
OUTPUT: 1.75

INPUT: Using the record for O=C(NC1CCCCN(Cc2ccccc2O)C1)c1cccc(C(F)(F)F)c1 (centres undefined) , report its inhibition.
OUTPUT: 1.72

INPUT: What does the data say about its inhibition? Entry: `Cc1noc(C)c1-c1ccc2c(Nc3ccc([N+](=O)[O-])cc3)c(C(N)=O)cnc2c1`
OUTPUT: -0.09

INPUT: Fill in the blank: the reported inhibition of `COc1cc(Cl)c(C)cc1N(Cc1ccccc1-c1ccccc1)S(=O)(=O)c1ccc(C(F)(F)F)cc1` is ____.
OUTPUT: 0.29

Sourced from ChEMBL document CHEMBL3433997
